Numbers sourced from patent US20250115581A1.

TESTED ON: CRBN/DDB1 (Homo sapiens, UniProt Q96SW2)
Sequence (Q96SW2 whole entry): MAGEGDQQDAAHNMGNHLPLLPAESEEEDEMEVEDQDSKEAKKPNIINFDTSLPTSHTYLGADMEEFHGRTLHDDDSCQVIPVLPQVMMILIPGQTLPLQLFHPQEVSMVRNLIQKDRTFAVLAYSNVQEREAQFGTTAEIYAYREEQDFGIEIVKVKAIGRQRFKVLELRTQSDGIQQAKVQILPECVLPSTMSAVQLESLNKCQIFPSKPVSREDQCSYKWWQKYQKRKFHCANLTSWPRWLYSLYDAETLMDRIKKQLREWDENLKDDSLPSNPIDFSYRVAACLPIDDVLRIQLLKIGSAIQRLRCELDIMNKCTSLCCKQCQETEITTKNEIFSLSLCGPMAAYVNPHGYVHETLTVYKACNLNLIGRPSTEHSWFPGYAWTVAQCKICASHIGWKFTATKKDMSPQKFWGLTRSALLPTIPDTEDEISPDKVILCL
Sequence (Q16531 whole entry partner): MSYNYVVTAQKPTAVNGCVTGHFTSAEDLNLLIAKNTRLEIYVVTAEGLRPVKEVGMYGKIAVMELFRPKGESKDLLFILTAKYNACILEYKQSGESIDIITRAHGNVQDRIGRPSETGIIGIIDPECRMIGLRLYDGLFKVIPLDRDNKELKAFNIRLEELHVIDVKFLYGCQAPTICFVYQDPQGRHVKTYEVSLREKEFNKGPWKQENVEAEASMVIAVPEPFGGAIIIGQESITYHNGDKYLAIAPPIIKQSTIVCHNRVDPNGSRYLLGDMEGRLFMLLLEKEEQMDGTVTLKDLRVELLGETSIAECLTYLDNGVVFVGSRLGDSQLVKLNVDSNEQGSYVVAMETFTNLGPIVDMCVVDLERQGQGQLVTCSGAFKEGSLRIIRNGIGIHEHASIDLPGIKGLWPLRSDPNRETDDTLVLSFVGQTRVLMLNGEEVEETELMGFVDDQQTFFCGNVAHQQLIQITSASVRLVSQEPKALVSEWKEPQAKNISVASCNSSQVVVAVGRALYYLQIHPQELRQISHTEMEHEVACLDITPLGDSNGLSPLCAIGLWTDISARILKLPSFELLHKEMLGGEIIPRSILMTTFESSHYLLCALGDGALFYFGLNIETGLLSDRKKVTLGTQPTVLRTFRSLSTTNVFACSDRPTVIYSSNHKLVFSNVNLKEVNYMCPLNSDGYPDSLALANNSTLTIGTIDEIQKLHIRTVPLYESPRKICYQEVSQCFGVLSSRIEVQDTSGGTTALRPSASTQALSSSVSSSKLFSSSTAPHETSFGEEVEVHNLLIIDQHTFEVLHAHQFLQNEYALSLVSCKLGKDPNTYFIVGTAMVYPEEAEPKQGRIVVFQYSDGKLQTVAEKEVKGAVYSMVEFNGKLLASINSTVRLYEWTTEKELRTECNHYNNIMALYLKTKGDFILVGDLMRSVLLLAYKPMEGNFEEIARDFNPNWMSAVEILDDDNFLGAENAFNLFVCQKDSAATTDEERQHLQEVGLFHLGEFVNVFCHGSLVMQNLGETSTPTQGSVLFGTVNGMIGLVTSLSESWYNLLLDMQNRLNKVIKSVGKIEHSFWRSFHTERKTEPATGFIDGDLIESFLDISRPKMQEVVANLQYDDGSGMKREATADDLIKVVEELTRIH
ASSAY TEXT: HTRF binding assay (displacement of Cy5-thalidomide probe from CRBN/DDB1)
TEST CONTEXT: CRBN/DDB1 2.5 nM, Cy5-Thalidomide 100 nM, 30 min; geometric mean; read-out: HTRF_Thali_Disp_DR_geo_IC50
pIC50: −log10 of the molar value.
RECORDED METRIC: pIC50

So what does the record say about pIC50 for O=C1CCC(N2Cc3cc(N4CCN(C5CCC5)C4=O)ccc3C2=O)C(=O)N1 (stereo not shown) [Compound 159] ?
< 6.00

So what does the record say about pIC50 for C[C@@H]1CN(c2ccc3c(c2)CN(C2CCC(=O)NC2=O)C3=O)C(=O)N1c1ccncn1 (stereo partly shown) [Compound 180] ?
< 6.00

So what does the record say about pIC50 for C[C@@H]1CN(c2ccc3c(c2)CN(C2CCC(=O)NC2=O)C3=O)C(=O)N1C1CCOC1 (stereo partly shown) [Compound 161] ?
6.00 to 7.00

So what does the record say about pIC50 for CO[C@@H](C)c1cccc(N2CCN(c3ccc4c(c3)CN(C3CCC(=O)NC3=O)C4=O)C2=O)c1 (stereo partly shown) [Compound 139] ?
6.00 to 7.00

###

TESTED ON: CRBN/DDB1 (Homo sapiens, UniProt Q96SW2)
ASSAY TEXT: HTRF binding assay (displacement of Cy5-thalidomide probe from CRBN/DDB1)
TEST CONTEXT: CRBN/DDB1 2.5 nM, Cy5-Thalidomide 100 nM, 30 min; geometric mean; read-out: HTRF_Thali_Disp_DR_geo_IC50
pIC50: −log10 of the molar value.
RECORDED METRIC: pIC50

So what does the record say about pIC50 for O=C1CCC(N2Cc3cc(N4CC5(CC5)N(c5ccccc5)C4=O)ccc3C2=O)C(=O)N1 (centres unmarked) ?
6.00 to 7.00

So what does the record say about pIC50 for Cc1ccc(N2C(=O)N(c3ccc4c(c3)CN(C3CCC(=O)NC3=O)C4=O)C[C@H]2C(F)F)cc1 (some centres unmarked) ?
6.00 to 7.00

So what does the record say about pIC50 for Cc1ccc(N2C(=O)N(c3ccc4c(c3)CN(C3CCC(=O)NC3=O)C4=O)C[C@H]2C)cc1 (some centres unmarked) ?
6.00 to 7.00

So what does the record say about pIC50 for Cc1ccccc1N1C(=O)N(c2ccc3c(c2)CN(C2CCC(=O)NC2=O)C3=O)C[C@H]1C (some centres unmarked) ?
6.00 to 7.00

So what does the record say about pIC50 for Cc1ccc(N2C(=O)N(c3ccc4c(c3)CN(C3CCC(=O)NC3=O)C4=O)C[C@H]2C)nc1 (some centres unmarked) ?
6.00 to 7.00

So what does the record say about pIC50 for C[C@@H]1CN(c2ccc3c(c2)CN(C2CCC(=O)NC2=O)C3=O)C(=O)N1C1CCCC1 (some centres unmarked) ?
6.00 to 7.00

So what does the record say about pIC50 for Cc1ccc(N2C(=O)N(c3ccc4c(c3)CN(C3CCC(=O)NC3=O)C4=O)CC2C)cn1 (centres unmarked) ?
< 6.00

So what does the record say about pIC50 for O=C1CCC(N2Cc3cc(N4CCN(C5CC6(CCC6)C5)C4=O)ccc3C2=O)C(=O)N1 (centres unmarked) ?
6.00 to 7.00

So what does the record say about pIC50 for N#Cc1ccc(N2CCN(c3ccc4c(c3)CN(C3CCC(=O)NC3=O)C4=O)C2=O)cc1 (centres unmarked) ?
6.00 to 7.00

So what does the record say about pIC50 for O=C1CCC(N2Cc3cc(N4CCN(c5ccc(C6CC6)cc5)C4=O)ccc3C2=O)C(=O)N1 (centres unmarked) ?
< 6.00

So what does the record say about pIC50 for CN1CCN(c2cccc(N3CCN(c4ccc5c(c4)CN(C4CCC(=O)NC4=O)C5=O)C3=O)c2)CC1 (centres unmarked) ?
6.00 to 7.00

###

Would you kindly list DC50 for each of these molecules?
TESTED ON: CK1α (Homo sapiens, UniProt P48729+Q96SW2)
Construct: HEK293 clonal lines with CRISPR KI HiBiT tag on CSNK1A1; host or cells: HEK293 clonal line, CRISPR knock-in HiBiT at the CSNK1A1 locus, stably expressing LgBiT
Sequence (P48729 whole entry): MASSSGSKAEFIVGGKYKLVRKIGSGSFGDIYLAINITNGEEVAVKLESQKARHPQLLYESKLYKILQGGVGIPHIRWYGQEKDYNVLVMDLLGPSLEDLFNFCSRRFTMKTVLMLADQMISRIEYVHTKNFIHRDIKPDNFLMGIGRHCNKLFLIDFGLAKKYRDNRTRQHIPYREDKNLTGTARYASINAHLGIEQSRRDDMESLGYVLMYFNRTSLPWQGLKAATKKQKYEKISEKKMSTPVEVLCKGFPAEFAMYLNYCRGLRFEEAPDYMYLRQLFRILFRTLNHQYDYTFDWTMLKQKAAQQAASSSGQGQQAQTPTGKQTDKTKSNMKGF
Sequence (Q96SW2 whole entry): as the sequence (Q96SW2 whole entry) above
Sequence (Q16531 whole entry partner): as the sequence (Q16531 whole entry partner) above
ASSAY TEXT: CK1α NanoBit Assay (HiBiT-tagged CSNK1A1 in HEK293 cells, luminescence)
Type: cell-based
TEST CONTEXT: 24 h

So what does the record say about DC50 for CN1CCN(c2ccc(N3CCN(c4ccc5c(c4)CN(C4CCC(=O)NC4=O)C5=O)C3=O)cc2)CC1 (stereo not shown) ?
0.1 to 1 µM

So what does the record say about DC50 for CN1Cc2cccc(N3CCN(c4ccc5c(c4)CN(C4CCC(=O)NC4=O)C5=O)C3=O)c2C1 (stereo not shown) ?
> 1 µM

So what does the record say about DC50 for CO[C@@H](C)c1cccc(N2CCN(c3ccc4c(c3)CN(C3CCC(=O)NC3=O)C4=O)C2=O)c1 (stereo partly shown) ?
≤ 0.1 µM

So what does the record say about DC50 for O=C1CCC(N2Cc3cc(N4CCN(c5ccc(C(F)(F)F)nc5)C4=O)ccc3C2=O)C(=O)N1 (stereo not shown) ?
≤ 0.1 µM

So what does the record say about DC50 for O=C1CCC(N2Cc3cc(N4CCN(c5ccc(Cl)cc5)C4=O)ccc3C2=O)C(=O)N1 (stereo not shown) ?
≤ 0.1 µM

So what does the record say about DC50 for Cc1ccc(N2C(=O)N(c3ccc4c(c3)CN(C3CCC(=O)NC3=O)C4=O)C[C@H]2C(F)F)cc1 (stereo partly shown) ?
> 1 µM

So what does the record say about DC50 for N#Cc1cccc(N2CCN(c3ccc4c(c3)CN(C3CCC(=O)NC3=O)C4=O)C2=O)c1 (stereo not shown) ?
≤ 0.1 µM

###

Would you kindly list DC50 for each of these compounds?
TESTED ON: CK1α (Homo sapiens, UniProt P48729+Q96SW2)
Construct: HEK293 clonal lines with CRISPR KI HiBiT tag on CSNK1A1; host or cells: HEK293 clonal line, CRISPR knock-in HiBiT at the CSNK1A1 locus, stably expressing LgBiT
ASSAY TEXT: CK1α NanoBit Assay (HiBiT-tagged CSNK1A1 in HEK293 cells, luminescence)
Format: cell-based
TEST CONTEXT: 24 h

Which measured DC50 belongs to C[C@@H]1CN(c2ccc3c(c2)CN(C2CCC(=O)NC2=O)C3=O)C(=O)N1C1CCCC1 (stereo partly shown) , tested on CK1α (Homo sapiens, UniProt P48729+Q96SW2)?
≤ 0.1 µM

Which measured DC50 belongs to O=C1CCC(N2Cc3cc(N4CCN(c5ccc(C6CC6)cc5)C4=O)ccc3C2=O)C(=O)N1 (stereo not shown) , tested on CK1α (Homo sapiens, UniProt P48729+Q96SW2)?
≤ 0.1 µM

Which measured DC50 belongs to Cc1ccc(N2C(=O)N(c3ccc4c(c3)CN(C3CCC(=O)NC3=O)C4=O)C[C@@H]2C)cn1 (stereo partly shown) , tested on CK1α (Homo sapiens, UniProt P48729+Q96SW2)?
0.1 to 1 µM

Which measured DC50 belongs to Cc1ccc(N2C(=O)N(c3ccc4c(c3)CN(C3CCC(=O)NC3=O)C4=O)C[C@H]2C)cc1 (stereo partly shown) , tested on CK1α (Homo sapiens, UniProt P48729+Q96SW2)?
≤ 0.1 µM

###

TESTED ON: CK1α (Homo sapiens, UniProt P48729+Q96SW2)
Construct: HEK293 clonal lines with CRISPR KI HiBiT tag on CSNK1A1; host or cells: HEK293 clonal line, CRISPR knock-in HiBiT at the CSNK1A1 locus, stably expressing LgBiT
ASSAY TEXT: CK1α NanoBit Assay (HiBiT-tagged CSNK1A1 in HEK293 cells, luminescence)
Type: cell-based
TEST CONTEXT: 24 h
Would you kindly list DC50 for each of these compounds?

So what does the record say about DC50 for O=C1CCC(N2Cc3cc(N4CCN(C5CCOCC5)C4=O)ccc3C2=O)C(=O)N1 (stereo not drawn) [Compound 183] ?
> 1 µM

So what does the record say about DC50 for O=C1CCC(N2Cc3cc(N4CCN(c5ccc(C6CCOC6)cc5)C4=O)ccc3C2=O)C(=O)N1 (stereo not drawn) [Compound 144] ?
≤ 0.1 µM

So what does the record say about DC50 for O=C1CCC(N2Cc3cc(N4CCN(c5ccc(C(F)F)nc5)C4=O)ccc3C2=O)C(=O)N1 (stereo not drawn) [Compound 124] ?
≤ 0.1 µM

So what does the record say about DC50 for Cc1ccc(N2C(=O)N(c3ccc4c(c3)CN(C3CCC(=O)NC3=O)C4=O)C[C@H]2C)cn1 (stereo partly drawn) [Compound 151] ?
≤ 0.1 µM

So what does the record say about DC50 for CC(C)C(=O)c1ccc(N2CCN(c3ccc4c(c3)CN(C3CCC(=O)NC3=O)C4=O)C2=O)cc1 (stereo not drawn) [Compound 181] ?
> 1 µM

So what does the record say about DC50 for Cc1ccc(N2C(=O)N(c3ccc4c(c3)CN(C3CCC(=O)NC3=O)C4=O)C[C@H]2C)nc1 (stereo partly drawn) [Compound 156] ?
0.1 to 1 µM

So what does the record say about DC50 for CC1(c2ccc(N3CCN(c4ccc5c(c4)CN(C4CCC(=O)NC4=O)C5=O)C3=O)cc2)CC1 (stereo not drawn) [Compound 135] ?
≤ 0.1 µM

So what does the record say about DC50 for O=C1CCC(N2Cc3cc(N4CCN(C5COC5)C4=O)ccc3C2=O)C(=O)N1 (stereo not drawn) [Compound 178] ?
> 1 µM

So what does the record say about DC50 for C[C@@H]1CN(c2ccc3c(c2)CN(C2CCC(=O)NC2=O)C3=O)C(=O)N1c1ccccc1 (stereo partly drawn) [Compound 107] ?
≤ 0.1 µM

So what does the record say about DC50 for O=C1CCC(N2Cc3cc(N4CCN(c5cccc6nc[nH]c56)C4=O)ccc3C2=O)C(=O)N1 (stereo not drawn) [Compound 175] ?
> 1 µM

So what does the record say about DC50 for O=C1CCC(N2Cc3cc(N4CCN(c5ccc(C6COC6)cc5)C4=O)ccc3C2=O)C(=O)N1 (stereo not drawn) [Compound 146] ?
≤ 0.1 µM

So what does the record say about DC50 for Cc1ccc(N2CCN(c3ccc4c(c3)CN(C3CCC(=O)NC3=O)C4=O)C2=O)cn1 (stereo not drawn) [Compound 104] ?
≤ 0.1 µM

So what does the record say about DC50 for COC[C@H]1CN(c2ccc3c(c2)CN(C2CCC(=O)NC2=O)C3=O)C(=O)N1c1ccc(C)cc1 (stereo partly drawn) [Compound 157] ?
0.1 to 1 µM

So what does the record say about DC50 for N#Cc1ccc(N2CCN(c3ccc4c(c3)CN(C3CCC(=O)NC3=O)C4=O)C2=O)cc1 (stereo not drawn) [Compound 115] ?
0.1 to 1 µM

So what does the record say about DC50 for CC1CN(c2ccc3c(c2)CN(C2CCC(=O)NC2=O)C3=O)C(=O)N1c1ccc(C(F)(F)F)nc1 (stereo not drawn) [Compound 121] ?
≤ 0.1 µM

So what does the record say about DC50 for O=C1CCC(N2Cc3cc(N4C[C@H](C(F)(F)F)N(c5ccccc5)C4=O)ccc3C2=O)C(=O)N1 (stereo partly drawn) [Compound 108] ?
> 1 µM

So what does the record say about DC50 for O=C1CCC(N2Cc3cc(N4CCN(C5CN(c6ccccc6)C5)C4=O)ccc3C2=O)C(=O)N1 (stereo not drawn) [Compound 174] ?
> 1 µM

So what does the record say about DC50 for COC(C)c1ccccc1N1CCN(c2ccc3c(c2)CN(C2CCC(=O)NC2=O)C3=O)C1=O (stereo not drawn) [Compound 169] ?
0.1 to 1 µM

So what does the record say about DC50 for O=C1CCC(N2Cc3cc(N4CCN(c5cccc(C(F)(F)F)c5)C4=O)ccc3C2=O)C(=O)N1 (stereo not drawn) [Compound 116] ?
≤ 0.1 µM

So what does the record say about DC50 for C[C@@H]1CN(c2ccc3c(c2)CN(C2CCC(=O)NC2=O)C3=O)C(=O)N1C1CCC1 (stereo partly drawn) [Compound 142] ?
≤ 0.1 µM

So what does the record say about DC50 for O=C1CCC(N2Cc3cc(N4CCN(C(c5ccccc5)C(F)(F)F)C4=O)ccc3C2=O)C(=O)N1 (stereo not drawn) [Compound 179] ?
> 1 µM

So what does the record say about DC50 for Cc1cccc(N2CCN(c3ccc4c(c3)CN(C3CCC(=O)NC3=O)C4=O)C2=O)c1 (stereo not drawn) [Compound 110] ?
≤ 0.1 µM

So what does the record say about DC50 for C[C@@H]1CN(c2ccc3c(c2)CN(C2CCC(=O)NC2=O)C3=O)C(=O)N1c1cnccn1 (stereo partly drawn) [Compound 132] ?
≤ 0.1 µM

So what does the record say about DC50 for COCc1cccc(N2C(=O)N(c3ccc4c(c3)CN(C3CCC(=O)NC3=O)C4=O)C[C@H]2C)c1 (stereo partly drawn) [Compound 149] ?
≤ 0.1 µM

So what does the record say about DC50 for C[C@@H]1CN(c2ccc3c(c2)CN(C2CCC(=O)NC2=O)C3=O)C(=O)N1c1ccc(C2CC2)cc1 (stereo partly drawn) [Compound 125] ?
≤ 0.1 µM

So what does the record say about DC50 for O=C1CCC(N2Cc3cc(N4CCN(c5ccc(C6(C(F)(F)F)CC6)cc5)C4=O)ccc3C2=O)C(=O)N1 (stereo not drawn) [Compound 147] ?
≤ 0.1 µM

So what does the record say about DC50 for COCc1ccc(N2C(=O)N(c3ccc4c(c3)CN(C3CCC(=O)NC3=O)C4=O)C[C@H]2C)cc1 (stereo partly drawn) [Compound 134] ?
≤ 0.1 µM

So what does the record say about DC50 for O=C1CCC(N2Cc3cc(N4CCN(c5ccc6c(c5)OCC6)C4=O)ccc3C2=O)C(=O)N1 (stereo not drawn) [Compound 127] ?
≤ 0.1 µM

So what does the record say about DC50 for O=C1CCC(N2Cc3cc(N4CCN(c5ccccn5)C4=O)ccc3C2=O)C(=O)N1 (stereo not drawn) [Compound 105] ?
≤ 0.1 µM

So what does the record say about DC50 for CC(c1ccccc1)N1CCN(c2ccc3c(c2)CN(C2CCC(=O)NC2=O)C3=O)C1=O (stereo not drawn) [Compound 154] ?
0.1 to 1 µM
